Reported values of AUC for individual entries
test: Pharmacokinetic test in mice; type: in vivo, ICR mice; conditions: male, ICR, mouse, plasma, 5 mg/kg, PO - 5 mpk

Cc1cc(N2CC3(CN(C(=O)C(C)(C)O)C3)C2)nc2c(N(C)c3nc(-c4ccc(F)cc4)c(C#N)s3)c3c(nc12)CC3; 36500 ng·h/mL
CN(c1nc(-c2ccc(F)cc2)c(C#N)s1)c1c2c(nc3c(F)cc(N4CC5(CN(C(=O)[C@H]6CCOC6)C5)C4)cc13)COC2; 11000 ng·h/mL

We next turn to a different compound, shown below.
-- ask So what's the measured AUC for this one? `CN(c1nc(-c2ccc(F)cc2)c(C#N)s1)c1c2c(nc3c(F)cc(N4CC5(CN(C(=O)[C@@H]6CCOC6)C5)C4)cc13)CC2`
-- reply 7940 ng·h/mL

* * *

molecular target: UniProt Q13822; experiment: ATX enzyme inhibition assay (Amplex UltraRed/choline oxidase/HRP, 16:0 Lyso PC substrate); type: biochemical; conditions: assay buffer pH 7.5; read-out: IC50 (nM) pH 7.5
experimental_readout: IC50 (nM)
Please state the figure in nM; there is no need to write the unit.

Solved entries (count: 2):
CN(c1nc(-c2ccc(F)cc2)c(C#N)s1)c1c2c(nc3ncc(N4CC5(CN(C(=O)[C@@H]6CCOC6)C5)C4)cc13)CCC2 [Example C4]; 38.6
CN(c1nc(-c2ccc(F)cc2)c(C#N)s1)c1c2c(nc3cc(F)c(N4CCN(CC(=O)N5CC(O)C5)CC4)cc13)CCC2 [Example A8]; 883

-- ask So what's the measured IC50 for this one? CN(c1nc(-c2ccc(F)cc2)c(C#N)s1)c1c2c(nc3c(F)cc(N4CCC5(CCN(C(=O)[C@@H]6CCOC6)CC5)C4)cc13)CCC2 [Example C15]
-- reply 232

-- ask So what's the measured IC50 for this one? CN(c1nc(-c2ccc(F)cc2)c(C#N)s1)c1c2c(nc3c(F)cc(N4CC5(CN(C(=O)[C@H]6CCOC6)C5)C4)cc13)CCC2 [Example C1]
-- reply 63.5

-- ask So what's the measured IC50 for this one? CN(c1nc(-c2ccc(F)cc2)c(C#N)s1)c1c2c(nc3c(F)cc(N4CC5(CN(C(=O)[C@@H]6CCOC6)C5)C4)cc13)CCO2 [Example C11]
-- reply 132

* * *

assay: Pharmacokinetic test in mice; format: in vivo, ICR mice; details: male, ICR, mouse, plasma, 5 mg/kg, PO - 5 mpk
Labelling: Tmax reported below 30 min becomes Met; at or above becomes Not met.

These recorded examples may help you get a feel for the data.
CN(c1nc(-c2ccc(F)cc2)c(C#N)s1)c1c2c(nc3c(F)cc(N4CC5(CN(C(=O)C(C)(C)O)C5)C4)cc13)[C@](C)(O)CC2 (single isomer, unassigned); Not met
CN(c1nc(-c2ccc(F)cc2)c(C#N)s1)c1c2c(nc3c(F)cc(N4CC5(CN(C(=O)[C@H]6CCOC6)C5)C4)cc13)COC2; Not met
Cc1cc(N2CC3(CN(C(=O)C(C)(C)O)C3)C2)cc2c(N(C)c3nc(-c4ccc(F)cc4)c(C#N)s3)c3c(nc12)CC3; Not met
CN(c1nc(-c2ccc(F)cc2)c(C#N)s1)c1c2c(nc3c(F)cc(N4CC5(CN(C(=O)C(C)(C)O)C5)C4)cc13)[C@@H](O)CC2 (single isomer, unassigned); Met
Cc1cc(N2CC3(CN(C(=O)C(C)(C)O)C3)C2)nc2c(N(C)c3nc(-c4ccc(F)cc4)c(C#N)s3)c3c(nc12)C(C)(O)CC3 (centres unmarked); Not met

-- ask Determine if `CN(c1nc(-c2ccc(F)cc2)c(C#N)s1)c1c2c(nc3c(F)cc(N4CC5(CN(C(=O)[C@@H]6CCOC6)C5)C4)cc13)CC2` shows Tmax strictly lower than 30 min.
-- reply Met

-- ask Determine if `CN(c1nc(-c2ccc(F)cc2)c(C#N)s1)c1c2c(nc3c(F)cc(N4CC5(CN(C(=O)C(C)(C)O)C5)C4)cc13)CC2` shows Tmax strictly lower than 30 min.
-- reply Not met

-- ask Determine if `Cc1cc(N2CC3(CN(C(=O)C(C)(C)O)C3)C2)cc2c(N(C)c3nc(-c4ccc(F)cc4)c(C#N)s3)c3c(nc12)COC3` shows Tmax strictly lower than 30 min.
-- reply Met

-- ask Determine if `Cc1cc(N2CC3(CN(C(=O)C(C)(C)O)C3)C2)nc2c(N(C)c3nc(-c4ccc(F)cc4)c(C#N)s3)c3c(nc12)CC3` shows Tmax strictly lower than 30 min.
-- reply Not met

-- ask Determine if Cc1cc(N2CC3(CN(C(=O)C(C)(C)O)C3)C2)nc2c(N(C)c3nc(-c4ccc(F)cc4)c(C#N)s3)c3c(nc12)C(O)CC3 (centres unmarked) shows Tmax strictly lower than 30 min.
-- reply Not met
